B1: GFOD1 (parent)
chain: SDDFCTFQMVLEGGVCCTVTLNFN

- Variants of: B1
- assayMethodText: protein stability index of a GFP-peptide fusion (GPS, HEK-293T) (PSI 1-6); higher = more stable;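 also: lentivirally expressed fusions sorted by FACS into six bins by GFP to DsRed ratio, PSI derived from sequencing read proportions per bin multiplied by bin number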
- conditionSet: c terminus: a fixed tail appended
measurementName: protein stability index
Lab note: record the figure alone, no unit after it.

variantLabel: L11H
protein stability index: 3.05
--
variantLabel: V15D
protein stability index: 2.58
--
variantLabel: E12F
protein stability index: 2.27
--
variantLabel: C5A
protein stability index: 1.58
--
variantLabel: F4M
protein stability index: 3.37

protein stability index for `T20L` ? 1.03

protein stability index for `N22R` ? 2.43

protein stability index for `G14Q` ? 1.74

protein stability index for `Q8V` ? 3.25

protein stability index for `N22D` ? 2.09

protein stability index for `V15C` ? 2.55

protein stability index for `N22H` ? 2.62
